Data provenance: patent US10414775B2

# Assayed system: Human CYP8B1 (Homo sapiens, UniProt Q9UNU6)
# Construct: tissue Xenotech; host or cells: human liver microsomes
# Sequence (Q9UNU6 1-501): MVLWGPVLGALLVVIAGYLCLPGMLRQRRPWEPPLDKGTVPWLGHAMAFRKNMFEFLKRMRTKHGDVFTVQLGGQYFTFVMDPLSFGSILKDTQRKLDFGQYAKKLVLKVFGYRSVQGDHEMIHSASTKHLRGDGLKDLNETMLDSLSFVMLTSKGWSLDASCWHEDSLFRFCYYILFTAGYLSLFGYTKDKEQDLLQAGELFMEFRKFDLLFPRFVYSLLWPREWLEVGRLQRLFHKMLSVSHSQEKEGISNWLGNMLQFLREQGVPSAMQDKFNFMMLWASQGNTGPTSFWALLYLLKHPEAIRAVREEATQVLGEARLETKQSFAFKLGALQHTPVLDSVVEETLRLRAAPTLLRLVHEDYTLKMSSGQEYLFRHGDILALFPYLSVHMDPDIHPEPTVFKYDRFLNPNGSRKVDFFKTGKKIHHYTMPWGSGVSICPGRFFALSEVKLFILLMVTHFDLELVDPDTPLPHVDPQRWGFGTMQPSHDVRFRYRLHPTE
# Procedure summary: Human Cyp8B1 Liver Microsome Assay
# Assay type: biochemical
# Conditions used: human liver microsomes; substrate 7α-hydroxy-4-cholesten-3-one, NADPH; 30 min pre-incubation, 45 min reaction; RapidFire MS readout
Property measured: log10(IC50) (log10 of the value in nM)

Molecule | log10(IC50)
C[C@@H]1CN(c2ccnc3cc(S(C)(=O)=O)ccc23)CC[C@@H]1C(=O)N1CCn2c(nnc2C(F)(F)F)C1 [Example 71] | 2.48
C[C@@H]1CN(c2ccnc3ccc(Cl)cc23)CC[C@@H]1C(=O)N1CCn2c(nnc2C(F)(F)F)C1 (single isomer, unassigned) [Example 11a] | 0.54
C[C@@H]1CN(c2ccnc3cc(C(F)F)ccc23)CC[C@@H]1C(=O)N1CCn2c(nnc2C(F)(F)F)C1 [Example 58] | 0.78
Cc1cc(N2CC[C@H](C(=O)N3CCn4c(nnc4C(F)(F)F)C3)[C@H](C)C2)c2ccc(Cl)cc2n1 [Example 19] | 2.03
C[C@H](O)c1ccc2c(N3CC[C@H](C(=O)N4CCn5c(nnc5C(F)(F)F)C4)[C@H](C)C3)c(Cl)cnc2c1 (single isomer, unassigned) [Example 44a] | -0.47
Cc1nc2ccc(F)cc2c(N2CC[C@H](C(=O)N3CCn4c(nnc4C(F)(F)F)C3)[C@H](C)C2)c1C [Example 16] | 1.57
C[C@@H]1CN(c2ccnc3c2CCN(C(=O)OC2(C)CC2)C3)CC[C@@H]1C(=O)N1CCn2c(nnc2C(F)(F)F)C1 [Example 64] | 1.69

----------
# Assayed system: Human CYP8B1 (Homo sapiens)
# Construct: tissue Xenotech; host or cells: human liver microsomes
# Procedure summary: Human Cyp8B1 Liver Microsome Assay
# Assay type: biochemical
# Conditions used: human liver microsomes; substrate 7α-hydroxy-4-cholesten-3-one, NADPH; 30 min pre-incubation, 45 min reaction; RapidFire MS readout
Threshold-based label: IC50 under 8 nM gives class 1, IC50 not under 8 nM gives class 0.

Compound | Assayed system | Assigned class
C[C@@H]1CN(c2c(Cl)cnc3cc(OCC4CC4)ccc23)CC[C@@H]1C(=O)N1CCn2c(nnc2C(F)(F)F)C1 | Human CYP8B1 (Homo sapiens) | class 1
C[C@@H]1CN(c2ccnc3cc(C4CC4)ccc23)CC[C@@H]1C(=O)N1CCn2c(nnc2C(F)(F)F)C1 | Human CYP8B1 (Homo sapiens) | class 1
COc1ccc2c(N3CC[C@H](C(=O)N4CCn5c(nnc5C(F)(F)F)C4)[C@H](C)C3)ccnc2c1 | Human CYP8B1 (Homo sapiens) | class 0
C[C@@H]1CN(c2ccnc3cc(OCC4CC4)ccc23)CC[C@@H]1C(=O)N1CCn2c(nnc2C(F)(F)F)C1 | Human CYP8B1 (Homo sapiens) | class 1
CCOC(=O)c1cnc2ccc(F)cc2c1N1CC[C@H](C(=O)N2CCn3c(nnc3C(F)(F)F)C2)[C@H](C)C1 | Human CYP8B1 (Homo sapiens) | class 0
C[C@@H]1CN(c2ccnc3c(Cl)c(Cl)ccc23)CC[C@@H]1C(=O)N1CCn2c(nnc2C(F)(F)F)C1 | Human CYP8B1 (Homo sapiens) | class 0
C[C@@H]1CN(c2ccnc3cc(C(=O)NC45CC(C4)C5)ccc23)CC[C@@H]1C(=O)N1CCn2c(nnc2C(F)(F)F)C1 | Human CYP8B1 (Homo sapiens) | class 0
Cc1cc(N2CC[C@H](C(=O)N3CCn4c(nnc4C(F)(F)F)C3)[C@H](C)C2)c2cc(Cl)ccc2n1 | Human CYP8B1 (Homo sapiens) | class 0
C[C@@H]1CN(c2c(Cl)cnc3cc(-c4ncco4)ccc23)CC[C@@H]1C(=O)N1CCn2c(nnc2C2CC2)C1 | Human CYP8B1 (Homo sapiens) | class 1
C[C@H]1CN(c2ccnc3ccc(Cl)cc23)CC[C@H]1C(=O)N1CCn2c(nnc2C(F)(F)F)C1 (single isomer, unassigned) [Example 11b] | Human CYP8B1 (Homo sapiens) | class 0
C[C@@H]1CN(c2c(Cl)cnc3cc(Br)ccc23)CC[C@@H]1C(=O)N1CCn2c(nnc2C(F)(F)F)C1 | Human CYP8B1 (Homo sapiens) | class 1
C[C@@H]1CN(c2c(Cl)cnc3cc(C4CC4)ccc23)CC[C@@H]1C(=O)N1CCn2c(nnc2C(F)(F)F)C1 | Human CYP8B1 (Homo sapiens) | class 1
C[C@@H]1CN(c2c(Cl)cnc3cc(-c4ncco4)ccc23)CC[C@@H]1C(=O)N1CCn2c(nnc2C(F)(F)F)C1 | Human CYP8B1 (Homo sapiens) | class 1
CC1CN(c2ccnc3ccc(Cl)cc23)CCC1C(=O)N1CCn2c(nnc2C(F)(F)F)C1 (centres unmarked) | Human CYP8B1 (Homo sapiens) | class 0
